Test target: T1, His-tagged human HVEM (human, UniProt Q92956 39-202, limits assumed)
T1 construct: Analyte of the BLI assay, 200 nM in PBS; not shown: His tag
T1 sequence (looked up): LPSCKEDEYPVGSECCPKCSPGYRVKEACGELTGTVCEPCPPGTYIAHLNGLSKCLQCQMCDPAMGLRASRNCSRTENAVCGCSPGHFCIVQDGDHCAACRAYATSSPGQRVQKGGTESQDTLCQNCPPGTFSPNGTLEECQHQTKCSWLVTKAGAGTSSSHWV
Test details: BLI OctetRed96, mAb captured, 200 nM His-HVEM
Kindly state koff for each of the entries shown.
One number for each entry, in s⁻¹.

Here's what some known entries look like.
Data request: Record request: koff value, item Ab_029 (H5S15-14A14B) (antibody, V domains shown, also called Ab_29) VH: EVQLQQSGPELVKPGASVKMSCKASGYTFTSYVMHWVKQKPGQGLEWIGYINPYNDDTNCNEKFKGKATLTSDKSSSTAYMELSRLTSEDSAVYYCAKARGYGSTFYYSMDYWGQGTSVTVSS VL: DIVMTQSQKFMSTSVGDRVSVTCKASQNVGTNVAWYQQRPGQSPKSLIYSASYRYSGVPDRFTGSGSGTDFTLTISNVQSEDLADYFCQQYNSYPYTFGGGAKLEIK
Data returned: 0.0403

Data request: What koff value was documented for this binder, Ab_078 (H5S20-45A34A) (antibody, V domains shown, also called Ab_78) VH: EVQLQQSGAELVRSGASVKLSCAASGFNIKDYYMHWVKQRPEQGLEWIGWIDPENGDTEFAPKFQGKATLTADTSSNTAYLQLSSLTSEDTAVYYCNTRTLGYWGQGTLVTVSA VL: QIVLTQSPALMSASPGEKVTMTCTASSSVSYMYWYQQKPRSSPKPWIYLTSNLASGVPARFSGSGSGTSYSLTISSMEAEDAATYYCQQWSSNPLTFGAGTKLELR ?
Data returned: 0.0023

Next item in the queue.
Data request: State the recorded koff for this entry: Ab_009 (H5S14-8A7A) (antibody, V domains shown, also called Ab_9) VH: EVKLVESGGDLVKPGGSLKLSCAASGFTFSNYAMSWVRQTPEKRLEWVASISTGGTTSYYSDSVKGRFTISRDNARNILYLQMSSLRSEDTAMYYCARGGGGNYFWFTYWGQGTLVTISA VL: DVVMTQTPLSLPVSLGDQASISCRSSQSLVHSNGNTYLHWYLQKPGQSPKLLIYKVSNRFSGVPDRFSGSGSGTDFTLKISRVEAEDLGVYFCSQSTHVPFTFGSGTKLEIK
Data returned: 0.0175
